tested on: Liver; assay: Unbound intrinsic clearance in mouse liver microsomes; format: ADME, microsome
Exercise: state measured CL free for each of the compounds provided.

MOL SMILES: CCOc1cc(=O)n(C)cc1-c1cc(NS(=O)(=O)CC)ccc1Oc1ccc(C#N)cc1
CL free: < 4.6 L/h/kg

Give CL free for all compounds that follow.
1. CCOc1cc(=O)n(C)cc1-c1cc(S(=O)(=O)CC)ccc1Oc1ccc(F)cc1F
2. CCOc1cc(=O)n(C)cc1-c1cc(NS(=O)(=O)CC)ccc1Oc1ccc(F)cc1
3. CCOc1cc(=O)n(C)cc1-c1cc(NS(=O)(=O)CC)ccc1Oc1cccnc1

1: 12 L/h/kg; 2: < 5.9 L/h/kg; 3: < 3.2 L/h/kg

----------
system: Liver; experiment: Unbound intrinsic clearance in human liver microsomes; format: ADME, microsome
MEASURED PARAMETER: CL free (mL/min/kg)
Answers are plain numbers, in mL/min/kg.

MOL SMILES: CCS(=O)(=O)Nc1ccc2c(c1)-c1cn(C)c(=O)cc1OCCCCCc1cc(Cl)ccc1O2
MEASURED PARAMETER: CL free
RECORDED RESULT: 517
//
MOL SMILES: CCS(=O)(=O)Nc1ccc2c(c1)-c1cn(C)c(=O)cc1OCCCCc1cc(F)cc(F)c1O2
MEASURED PARAMETER: CL free
RECORDED RESULT: 67
//
MOL SMILES: Cn1cc2c(cc1=O)OCCCCc1cc(Cl)ccc1Oc1ncc(CS(C)(=O)=O)cc1-2
MEASURED PARAMETER: CL free
RECORDED RESULT: 56.7
//
MOL SMILES: CCOc1cc(=O)n(C)cc1-c1cc(NS(=O)(=O)CC)ccc1OC1CCC(F)(F)CC1
MEASURED PARAMETER: CL free
RECORDED RESULT: 35
//
MOL SMILES: CCS(=O)(=O)Nc1ccc(Oc2ccc(F)cc2F)c(-c2cn(C)c(=O)cc2OC)c1
MEASURED PARAMETER: CL free
RECORDED RESULT: 76.7

Give CL free for all compounds that follow.
1. CCS(=O)(=O)c1ccc2c(c1)-c1cn(C)c(=O)cc1OCCCCc1cc(Cl)ccc1O2
2. CCS(=O)(=O)Nc1cnc2c(c1)-c1cn(C)c(=O)cc1OCCCCc1cc(Cl)ccc1O2

[167, 63.3]

----------
tested on: Mus musculus; assay: Fraction absorbed in portal vein of mouse at 1 mg/kg, iv or 1 mg/kg, po; type: ADME, organism-based; conditions: in vivo
Exercise: state measured FaFg for each of the molecules provided.

MOL SMILES: CCS(=O)(=O)Nc1ccc2c(c1)-c1cn(C)c(=O)cc1OCCCCc1cc(Cl)ccc1O2
TARGET SYSTEM: Mus musculus
FaFg: 0.41

MOL SMILES: CCS(=O)(=O)c1cnc2c(c1)-c1cn(C)c(=O)cc1OCCCCc1cc(Cl)ccc1O2
TARGET SYSTEM: Mus musculus
FaFg: 0.9

Give FaFg for all molecules that follow.
1. CCS(=O)(=O)Nc1cnc2c(c1)-c1cn(C)c(=O)cc1OCCCCc1cc(F)cc(F)c1O2
2. Cn1cc2c(cc1=O)OCCCCc1cc(Cl)ccc1Oc1ncc(CS(C)(=O)=O)cc1-2
3. CCS(=O)(=O)c1ccc2c(c1)-c1cn(C)c(=O)cc1OCCCCc1cc(Cl)ccc1O2
4. CCS(=O)(=O)Nc1cnc2c(c1)-c1cn(C)c(=O)cc1OCCCCc1cc(Cl)ccc1O2
5. Cn1cc2c(cc1=O)OCCCCc1cc(Cl)ccc1Oc1ccc(CS(C)(=O)=O)cc1-2

1. 0.49
2. 0.51
3. 0.44
4. 0.76
5. 0.79

----------
test system: Liver; assay: Unbound intrinsic clearance in human liver microsomes; assay type: ADME, microsome
Binary classification by CL free, with 80 mL/min/kg as an inclusive lower bound for y; all other cases are n.

MOL SMILES: CCS(=O)(=O)c1cnc2c(c1)-c1cn(C)c(=O)cc1OCCCCc1cc(Cl)ccc1O2
LABEL VALUE: n
--
MOL SMILES: CCS(=O)(=O)Nc1ccc(Oc2ccc(F)cc2F)c(-c2cn(C)c(=O)cc2OC2COC2)c1
LABEL VALUE: n
--
MOL SMILES: CCOc1cc(=O)n(C)cc1-c1cc(NS(=O)(=O)CC)ccc1Oc1ccc(F)cc1
LABEL VALUE: n
--
MOL SMILES: CCOc1cc(=O)n(C)cc1-c1cc(NS(=O)(=O)CC)ccc1Oc1ccc(F)cc1F
LABEL VALUE: n

Reported CL free at or above 80 mL/min/kg? CCOc1cc(=O)n(C)cc1-c1cc(NS(=O)(=O)CC)ccc1Oc1ccccc1
n

Reported CL free at or above 80 mL/min/kg? CCS(=O)(=O)Nc1cnc2c(c1)-c1cn(C)c(=O)cc1OCCCCc1cc(F)cc(F)c1O2
n

Reported CL free at or above 80 mL/min/kg? Cn1cc2c(cc1=O)OCCCCc1cc(Cl)ccc1Oc1ccc(CS(C)(=O)=O)cc1-2
y

Reported CL free at or above 80 mL/min/kg? CCS(=O)(=O)c1ccc2c(c1)-c1cn(C)c(=O)cc1OCCCc1ccccc1O2
y

Reported CL free at or above 80 mL/min/kg? CCOc1cc(=O)n(C)cc1-c1cc(NS(=O)(=O)CC)ccc1Oc1ccc(C#N)cc1
n

----------
Exercise: state measured bioavailability for each of the compounds provided.
experiment: Oral bioavailability in mouse at 10 mg/kg; type: ADME, organism-based; conditions: in vivo

As a guide, the following entries are already answered.
MOL SMILES: CCS(=O)(=O)Nc1ccc(Oc2ccc(F)cc2F)c(-c2cn(C)c(=O)cc2OC2COC2)c1
RECORDED RESULT: 20%
--
MOL SMILES: CCOc1cc(=O)n(C)cc1-c1cc(S(=O)(=O)CC)ccc1Oc1ccc(F)cc1F
RECORDED RESULT: 41%
--
MOL SMILES: CCS(=O)(=O)Nc1ccc(Oc2ccc(F)cc2F)c(-c2cn(C)c(=O)cc2OC)c1
RECORDED RESULT: 63%

Kindly review the next compound as well.
Tell me its bioavailability given CCOc1cc(=O)n(C)cc1-c1cc(NS(=O)(=O)CC)ccc1Oc1ccc(F)cc1F as the entry.
56%

----------
test system: Liver; test: Unbound intrinsic clearance in rat liver microsomes; assay type: ADME, microsome
MEASURED PARAMETER: CL free (L/h/kg)
Answers are plain numbers, in L/h/kg.

MOL SMILES: CCOc1cc(=O)n(C)cc1-c1cc(NS(=O)(=O)CC)ccc1Oc1ccc(F)cc1
CL free, L/h/kg: 10

Tell me its CL free given CCS(=O)(=O)Nc1cnc2c(c1)-c1cn(C)c(=O)cc1OCCCCc1cc(Cl)ccc1O2 as the entry.
9.2

----------
Exercise: state measured CL free for each of the compounds provided.
test system: Mus musculus; test: Unbound plasma clearance in mouse at 3 mg/kg, iv or 10 mg/kg, po; assay type: ADME, organism-based; settings: in vivo
Answer with the value and then the unit.

As a guide, the following entries are already answered.
MOL SMILES: CCOc1cc(=O)n(C)cc1-c1cc(NS(=O)(=O)CC)ccc1Oc1ccc(F)cc1F
TARGET SYSTEM: Mus musculus
RECORDED RESULT: 267 mL/min/kg
//
MOL SMILES: CCS(=O)(=O)Nc1ccc(Oc2ccc(F)cc2F)c(-c2cn(C)c(=O)cc2OC)c1
TARGET SYSTEM: Mus musculus
RECORDED RESULT: 183 mL/min/kg
//
MOL SMILES: CCOc1cc(=O)n(C)cc1-c1cc(S(=O)(=O)CC)ccc1Oc1ccc(F)cc1F
TARGET SYSTEM: Mus musculus
RECORDED RESULT: 167 mL/min/kg

Kindly review the next compound as well.
State recorded CL free with Mus musculus, entry CCS(=O)(=O)Nc1ccc(Oc2ccc(F)cc2F)c(-c2cn(C)c(=O)cc2OC2COC2)c1 , no comment.
143 mL/min/kg

----------
tested on: Rattus norvegicus; experiment: Unbound clearance in rat at 1 mg/kg, iv or 1 mg/kg, po; type: ADME, organism-based; conditions: in vivo
MEASURED PARAMETER: CL free (mL/min/kg)
Answers are plain numbers, in mL/min/kg.

As a guide, the following entries are already answered.
MOL SMILES: Cn1cc2c(cc1=O)OCCCCc1cc(Cl)ccc1Oc1ncc(CS(C)(=O)=O)cc1-2
CL free, mL/min/kg: 142
--
MOL SMILES: CCS(=O)(=O)Nc1ccc2c(c1)-c1cn(C)c(=O)cc1OCCCCc1cc(Cl)ccc1O2
CL free, mL/min/kg: 2330
--
MOL SMILES: CCS(=O)(=O)c1cnc2c(c1)-c1cn(C)c(=O)cc1OCCCCc1cc(Cl)ccc1O2
CL free, mL/min/kg: 233

Tell me its CL free given CCS(=O)(=O)Nc1cnc2c(c1)-c1cn(C)c(=O)cc1OCCCCc1cc(Cl)ccc1O2 as the entry.
833
